Assayed Target: T1, GPR39 (G protein-coupled receptor 39) (Homo sapiens (Human), UniProt O43194 1-453)
T1 sequence: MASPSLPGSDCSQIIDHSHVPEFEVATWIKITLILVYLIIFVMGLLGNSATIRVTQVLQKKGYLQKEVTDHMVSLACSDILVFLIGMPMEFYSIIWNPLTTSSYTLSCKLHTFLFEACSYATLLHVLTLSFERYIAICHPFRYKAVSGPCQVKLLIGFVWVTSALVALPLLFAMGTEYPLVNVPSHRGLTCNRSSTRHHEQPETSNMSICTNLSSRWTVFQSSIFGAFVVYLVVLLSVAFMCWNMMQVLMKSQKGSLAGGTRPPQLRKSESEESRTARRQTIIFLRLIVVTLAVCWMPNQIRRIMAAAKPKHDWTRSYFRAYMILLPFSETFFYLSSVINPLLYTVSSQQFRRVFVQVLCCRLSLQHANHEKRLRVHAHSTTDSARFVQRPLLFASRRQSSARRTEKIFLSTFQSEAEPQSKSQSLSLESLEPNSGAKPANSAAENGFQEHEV
Method: cell-based or functional assay
Numbered stars: 1 amine (or outer) side, 2 acyl side, 3 side chain; on linkers, the order of the positions; unused ones are H or OH. Square brackets hold non-standard residues; d marks the D form. Ends that are not written are not given here. * marks the point of attachment. 1,2‑diphenyl = His whose imidazole is a 1,2-diphenyl-1H-imidazol-4-yl group, O=C([C@H](Cc1cn(-c2ccccc2)c(-c2ccccc2)n1)N[*:1])[*:2]; 1‑(4-tert-butyl)phenyl = CC(C)(C)c1ccc(*)cc1; dPhe(4-Me) = Cc1ccc(C[C@@H](N)C(=O)O)cc1; Trt = c1ccc(C(c2ccccc2)(c2ccccc2)*)cc1; CH2(1-naphthyl) = c1ccc2c(C*)cccc2c1; Octanoyl = CCCCCCCC(=O)*
# reported ECmax (-fold induction over basal); entries follow

{"columns": ["Binder", "Measurement Kind", "Data Value"],
 "data": [
  ["H(1‑(4-tert-butyl)phenyl)K(Octanoyl)[dPhe(4-Me)]Y [HKFY-61]", "ECmax (-fold induction over basal)", "9.88 -fold induction over basal"]
]}

Problem: Give the reported ECmax (-fold induction over basal) for this binder. H(4‑hydroxybenzhydryl)K(Octanoyl)[dPhe(4-Me)]Y [HKFY-65]
Result: 18.3 -fold induction over basal

Problem: Respond only with ECmax (-fold induction over basal) recorded for H(CH2(1-naphthyl))K(Octanoyl)FY [HKFY-10]
Result: 14 -fold induction over basal

Problem: Specify measured ECmax (-fold induction over basal) for H(Trt)K(Octanoyl)FYQNQARF (not fully specified; printed as His(trt)-Lys(caprylic)-Phe-Tyr-Gln-Asn-Gln-Ala-Arg-Phe) [HKFY-43] .
Result: 12.1 -fold induction over basal

Problem: Complete the entry with ECmax (-fold induction over basal) for H(1,2‑diphenyl)K(Octanoyl)[dPhe(4-Me)]Y [HKFY-59]
Result: 6.76 -fold induction over basal
